- Tested on: Mus musculus
- protocol-notes: Antiparkinsonian effect in mouse assessed as inhibition of CGS-21680-induced catalepsy at 10 mg/kg, po
- Type: functional
- condition-set: Mus musculus
Answer f if inhibition in vivo at 10 mg/kg is under 50%, and t if it is 50% or more.

1) COc1ccc(-c2cccnc2)c2cc(C(=O)Nc3ccncc3)oc12: f

Q: Hi team, for COc1ccc(N2CCOCC2)c2cc(C(=O)Nc3ccncc3)oc12 , is the recorded inhibition in vivo at 10 mg/kg at or above 50%?
Ans: t

Q: Has COc1ccc(-c2ccncc2)c2cc(C(=O)Nc3ccc(Cn4ccnc4)cc3)oc12 a recorded inhibition in vivo at 10 mg/kg greater than or equal to 50%?
Ans: t

Q: Determine whether this compound has inhibition in vivo at 10 mg/kg no lower than 50%: COc1ccc(-c2ccncc2)c2cc(C(=O)Nc3ccncc3)oc12
Ans: f

Q: Exam item: decide whether the reported inhibition in vivo at 10 mg/kg for COc1ccc(-c2cccnc2)c2cc(C(=O)Nc3ccc(Cn4ccnc4)cc3)oc12 is at least 50%.
Ans: t

Q: Has CCNC(=O)c1cc2c(N3CCOCC3)ccc(OC)c2o1 a recorded inhibition in vivo at 10 mg/kg greater than or equal to 50%?
Ans: f
